Items are presented alongside their recorded ED50.
system: rats; assay: Reversal of the effect of the mGluR2 PAM JNJ-42153605 on scopolamine-induced hyperlocomotion; type: in vivo; settings: Rattus norvegicus, 1 h, Route PO, test compound 60 min before recording, criterion total distance >1500 cm

chemical_smiles	qualifier	ED50 [mg/kg]
Cc1cc(-c2cnn3c2C(=O)N(c2ccc(C(F)(F)F)cc2)C[C@@H]3C)ccn1	=	0.45
C[C@H]1CN(c2ccc(C(F)(F)F)c(Cl)c2)C(=O)c2c(-c3ccnc(C#N)c3)cnn21	>	10
CNc1cc(-c2cnn3c2C(=O)N(c2ccc(C(F)(F)F)c(F)c2)C[C@@H]3C)ccn1	=	1.99
CNc1cc(-c2cnn3c2C(=O)N(c2ccc(C(F)(F)F)c(Cl)c2)C[C@@H]3C)cc(C#N)n1	>	2.5
Cc1cc(-c2cnn3c2C(=O)N(c2ccc(OC(F)(F)F)cc2)C[C@@H]3C)ccn1	=	1.99
C[C@H]1CN(c2ccc(C(F)(F)F)cc2)C(=O)c2c(-c3ccnc(C(F)(F)F)c3)cnn21	≥	2.5
